Hey, just so you know, these numbers are from patent US6423518B1.

- Test system: 2,5-diketo-D-gluconic acid reductase A (Corynebacterium sp., wild type SEQ ID NO:1) variant R238H (Corynebacterium sp., UniProt P06632, R238H)
- Construct: GroES fragment (N)
- Sequence (P06632 whole entry R238H, the tested form may be a part): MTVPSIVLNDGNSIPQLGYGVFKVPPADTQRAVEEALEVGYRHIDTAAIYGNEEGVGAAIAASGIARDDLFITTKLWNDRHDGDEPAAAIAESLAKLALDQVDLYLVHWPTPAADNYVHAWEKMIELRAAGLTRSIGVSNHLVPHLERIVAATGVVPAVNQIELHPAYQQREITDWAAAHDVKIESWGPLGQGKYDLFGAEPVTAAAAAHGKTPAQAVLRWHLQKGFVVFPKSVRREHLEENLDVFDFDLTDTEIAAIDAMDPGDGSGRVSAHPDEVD
- Assay explanation: Kinetic determination with purified enzyme, NADH cofactor, initial rates (microtiter plate)
- Experimental: The activities of the purified enzymes were assayed in 96-well microtiter plates on a plate reader. Equation (1) is: [formula] B=2,5-diketo-D-gluconic acid concentration; Kb=Michaelis Constant for 2,5-diketo-D-gluconic acid; Kia=Dissociation Constant for NADH; […] Cells containing plasmids for some of the mutant reductases were grown up on a 1 liter scale using a 10 ml inoculum from a saturated overnight culture. The cells were grown until absorbance of the culture at 600 nm was approximately 1.0. […]

Smiles repr: NC(=O)C1=CN([C@@H]2O[C@H](COP(=O)(O)OP(=O)(O)OC[C@H]3O[C@@H](n4cnc5c(N)ncnc54)[C@H](O)[C@@H]3O)[C@@H](O)[C@H]2O)C=CC1
Kd (µM): 2070
